Entry source: patent US5696108A

The next entries give measured IC50 for src (Homo sapiens, UniProt P12931).
observed.property: IC50 (µM)

{"molecule": "NC1CCCn2cc(c3ccccc32)C2=C(C(=O)NC2=O)c2cn(c3ccccc23)CCC1", "units.of.measure": "µM", "modifier": ">", "recorded.value": 125}
{"molecule": "O=C(NCC1CCCn2cc(c3ccccc32)C2=C(C(=O)NC2=O)c2cn(c3ccccc23)CC1)OCc1ccccc1 (stereo not shown)", "units.of.measure": "µM", "modifier": ">", "recorded.value": 100}
{"molecule": "O=C1NC(=O)C2=C1c1cn(c3ccccc13)CCO[C@H](CN1CCCC1)CCn1cc2c2ccccc21 [Example 20s]", "units.of.measure": "µM", "modifier": "=", "recorded.value": 16}
{"molecule": "NC[C@@H]1CCn2cc(c3ccccc32)C2=C(C(=O)NC2=O)c2cn(c3ccccc23)CCO1", "units.of.measure": "µM", "modifier": "=", "recorded.value": 63}
